folding stability dG overview
B1: EEHEE_rd4_0763 (parent)
chain: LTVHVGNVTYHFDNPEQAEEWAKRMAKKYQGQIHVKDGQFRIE

Variants of: B1
Method: folding stability dG (cDNA display proteolysis); higher = more stable
Condition info: PBS, room temperature
State just the number; it will be interpreted in kcal/mol.

[
  {
    "Macromolecule sequence": "LTVHVGNVTYHFDNPEQAEEWAKRMAKKYQGQIHVKDGQFRIH [E43H]",
    "Measurement units": "kcal/mol",
    "folding stability dG": 1.44
  },
  {
    "Macromolecule sequence": "LTVHVGNVTYHFDNPEQAEEWADRMAKKYQGQIHVKDGQFRIE [K23D]",
    "Measurement units": "kcal/mol",
    "folding stability dG": 0.88
  },
  {
    "Macromolecule sequence": "LTVHVGNVTYHFDNPEQAEEWAKRMYKKYQGQIHVKDGQFRIE [A26Y]",
    "Measurement units": "kcal/mol",
    "folding stability dG": 1.15
  },
  {
    "Macromolecule sequence": "LTVHVGNVTGHFDNPEQAEEWAKRMAKKYQGQIHVKDGQFRIE [Y10G]",
    "Measurement units": "kcal/mol",
    "folding stability dG": 0.153
  },
  {
    "Macromolecule sequence": "LTVHVGNVTYSFDNPEQAEEWAKRMAKKYQGQIHVKDGQFRIE [H11S]",
    "Measurement units": "kcal/mol",
    "folding stability dG": 1.43
  },
  {
    "Macromolecule sequence": "LTVHVGNVTYHFDNPEQAEEWAKRMAKKYQGQIGVKDGQFRIE [H34G]",
    "Measurement units": "kcal/mol",
    "folding stability dG": 1
  },
  {
    "Macromolecule sequence": "LTVHVGNVTYHFDNPEQAEEWAKRMAKKHQGQIHVKDGQFRIE [Y29H]",
    "Measurement units": "kcal/mol",
    "folding stability dG": 1.32
  },
  {
    "Macromolecule sequence": "LTVHVGNVTYHFDNPEQAEEWAKRMAKKYQGNIHVKDGQFRIE [Q32N]",
    "Measurement units": "kcal/mol",
    "folding stability dG": 1.33
  },
  {
    "Macromolecule sequence": "LTVHVGNVTYHFDNPEWAEEWAKRMAKKYQGQIHVKDGQFRIE [Q17W]",
    "Measurement units": "kcal/mol",
    "folding stability dG": 1.54
  },
  {
    "Macromolecule sequence": "LTVHVGNVTYHFDNPEQAEEWAKRMAKKYQGQRHVKDGQFRIE [I33R]",
    "Measurement units": "kcal/mol",
    "folding stability dG": 0.644
  }
]

Ask: Which folding stability dG value belongs to LTVHVGNVTYHFDNPEQAEEWAKRMAKKYQGQIHVWDGQFRIE [K36W] ?
Reply: 1.65

Ask: Which folding stability dG value belongs to LTVHVGNVTYHFDNPEQAEEWAKRMAKKNQGQIHVKDGQFRIE [Y29N] ?
Reply: 0.767

Ask: Which folding stability dG value belongs to LTVHVGNVTYHFDNPEQAEEWAKRMAKKYQGQIHVKDGQHRIE [F40H] ?
Reply: 1.02

Ask: Which folding stability dG value belongs to LTVHVGNVTYHFDNPEQAEEWAKRMAKKYQGQIHVKDGLFRIE [Q39L] ?
Reply: 0.835
